Provide the reported melting point of each item.

Looking up "CCNc1nc2ccc(CCc3ccc(CN4CCCCC4)o3)cc2o1" , I found its melting point recorded as 98 to 100 °C

Looking up "CC(C)OC(=O)c1ccc(Nc2cccc(Br)c2)c([N+](=O)[O-])c1" , I found its melting point recorded as 162 to 165 °C

Looking up Cc1cc(Br)cc(C)c1OCC1CCC[N+](C)([O-])C1 (stereo not given) , I found its melting point recorded as 210 to 211 °C

Looking up "O=C1Cc2ccccc2N1c1ccsc1" , I found its melting point recorded as 62 to 67 °C

Looking up CC1CCc2c(Cl)ccc3c(=O)c(C(=O)O)cn1c23 (stereo not given) , I found its melting point recorded as 290 to 291 °C

Looking up "CC(=O)NCc1ccc(CCN2CCC(n3ccc4ccccc43)CC2)cc1" , I found its melting point recorded as 133 to 134 °C

Looking up "CCCCCCCCCCNC(=O)C=Cc1cccc(NC(=O)/C=C\C(=O)O)c1" , I found its melting point recorded as 187 to 188 °C

Looking up COc1cc2c(cc1C)CCN(C)C2C1(c2ccsc2)CC1 (stereo not given) , I found its melting point recorded as 103 to 105 °C

Looking up COc1ccc(C(C)COc2nc(N)c3ncn(C4OC(CO)C(O)C4O)c3n2)cc1 (stereo not given) , I found its melting point recorded as 90 to 105 °C

Looking up CC(=O)C(O)C1OC(n2cc(F)c(=O)[nH]c2=O)CC1(O)C(C)=O (stereo not given) , I found its melting point recorded as 148 to 149 °C

###

measured parameter: melting point

Looking up COc1ccc(N2CCN(c3c(C)c(C)c4c(c3C)C(O)(c3ccc(C)cc3)C(C)(C)O4)CC2)cc1 (stereo not given) , I found its melting point recorded as 145 to 147 °C

Looking up CC(CCc1ccc(CC(=O)O)cc1)CC(=O)O (stereo not given) , I found its melting point recorded as 100 to 102 °C

Looking up Nc1cc(F)c(NCC(O)CO)cc1[N+](=O)[O-] (stereo not given) , I found its melting point recorded as 129 to 130 °C

Looking up O=C1NC(=O)C(CCCCc2ccc(O)cc2)O1 (stereo not given) , I found its melting point recorded as 151 to 152 °C

Looking up "CCSc1cc(C)nc(SCC)c1NC(=O)CCCCCCSc1nc2ccccc2[nH]1" , I found its melting point recorded as 151 to 156 °C

Looking up "Cc1cc(NC(c2ccccc2)(c2ccccc2)c2ccccc2)no1" , I found its melting point recorded as 196 to 199 °C

Looking up "N#CC(C#N)=C1N(CCCNC2CCCCC2)CCN1CCN1CCCCC1" , I found its melting point recorded as 78 to 80 °C

Looking up "COCOc1cccc(-c2ccc(-c3ccccc3)cc2-c2ccc3c(c2)C(C)(C)CCC3(C)C)c1C(=O)O" , I found its melting point recorded as 103 to 104 °C

Looking up "COc1ccc(NN=C(Sc2ccc(S(C)(=O)=O)cc2)C(C)=O)cc1" , I found its melting point recorded as 145 to 153 °C

Looking up "COc1cccc(N(C)c2nc(NC(=O)C(C)(C)C)nc3[nH]c4ccccc4c23)c1" , I found its melting point recorded as 248 to 249 °C

Looking up COc1ccc(C2Sc3c(ccc4ccccc34)N(CCN(C)C)C(=O)C2OC(=O)c2ccc(OC)c(OC)c2)cc1 (stereo not given) , I found its melting point recorded as 182 to 183 °C

Looking up "CC(C)(C)C(=O)c1sc(N)nc1-c1ccc(P(=O)(O)O)o1" , I found its melting point recorded as > 220 °C

Looking up "Cc1ccc(Nc2c([N+](=O)[O-])cc(C(=O)O)cc2S(N)(=O)=O)c(C)c1" , I found its melting point recorded as 224 to 226 °C

Looking up "COC(=S)CCc1cc(C(C)(C)C)cc(C(C)(C)C)c1O" , I found its melting point recorded as 55 to 55.5 °C

Looking up CC(=O)OCC1OC(n2cc(Cc3ccc(Br)cc3)c3c(C)cccc32)C(OC(C)=O)C(OC(C)=O)C1OC(C)=O (stereo not given) , I found its melting point recorded as 190 to 192 °C

Looking up "O=C1Nc2cccnc2N(C(=O)CCl)c2cc(F)ccc21" , I found its melting point recorded as 230 °C

Looking up "COc1ccc2ccc(NC(=O)c3cccc(O)c3)nc2n1" , I found its melting point recorded as 295 °C

Looking up "O=C(NO)c1ccc(CNC(=O)c2[nH]c(-c3ccccc3)cc2-c2ccc(F)cc2)cc1" , I found its melting point recorded as 215 to 216 °C

Looking up "CC(=O)N1CCc2cc(O)ccc2C1" , I found its melting point recorded as 135 to 136 °C

Looking up CC(O)Cn1cnc2c(=O)[nH]cnc21 (stereo not given) , I found its melting point recorded as 244 to 250 °C
